System: NCI-H522 lung
Protocol: NCI tumour cell line growth inhibition, 48 h
Assay metric: TGI

Examples with answers:
COc1cc(/C=C/C(=O)c2ccc(Nc3nc(Nc4ccc(F)cc4)nc(Nc4ccc(F)cc4)n3)cc2)cc(OC)c1OC	> 100 µM
Cc1cc2c(=O)cc(-c3ccc(Cl)cc3)oc2c(C(=O)O)c1C	> 100 µM

Req: Quick one: TGI of CCOC(=O)Nc1ccc(S(=O)(=O)Nc2ccc(Br)cc2)cc1 ?
Resp: > 100 µM

---

Give TGI for every item shown.
Tested on: U251 CNS
Protocol: NCI tumour cell line growth inhibition, 48 h
Where a SMILES comes first, the peptide text is derived from it. [ ]: non-standard residue; d: D form. The star is where a group is joined. X28 = COC1=CC(=O)N(C(=O)[C@@H](O*)C(C)C)[C@H]1Cc1ccccc1; NMeL = CN[C@@H](CC(C)C)C(=O)O; Hexanoyl = CCCCCC(=O)*

C[Si](C)(C)C#C[I+]c1ccccc1	> 100 µM

Provide reported TGI for each item, in the same order as listed.
1. COC(=O)CCCc1ccc2c(c1)CCC2
2. Cc1cc2c(=O)cc(-c3ccc(Cl)cc3)oc2c(C(=O)O)c1C
3. Cc1c2cc[n+](C)cc2c(COC2OC(CO)C(O)C2O)c2c3ccccc3n(C)c12 (configuration not stated)

Resp:
> 100 µM
> 100 µM
> 100 µM

Quick one: give me TGI for each item below, same order please.
1. CCOC(=O)c1c(OCC)[nH]c(=O)c(C(c2ccc(F)cc2)c2c(O)c(C(=O)OCC)c(OCC)[nH]c2=O)c1O
2. C=C(C)C1CC2=C(C(=O)OC)C=C(O2)C(C(=C)C)[C@@H]2OC(=O)/C(=C\C1O)[C@H]2N(C)C (some centres not stated)

Resp:
1: 36.3 µM; 2: 33 µM

I'm hoping you can list TGI for every compound here, please.
1. COc1ccc(N(C(=O)OC(C)(C)C)[C@@H]2C(C)=C[C@H]([S@@](=O)c3ccc(C)cc3)[C@@H]3C(=O)N(C)C(=O)[C@@H]32)cc1
2. CC1(C(O)c2ccccc2)CN(C(C)(C)C)C(=O)/C1=C\Sc1ccccc1 (configuration not stated)
3. C#CCNC(Cc1ccccc1)C(=O)O (configuration not stated)

Resp:
["31.9 µM", "> 100 µM", "> 100 µM"]

Consider the following items and state reported TGI for each.
1. C=C1C(=O)O[C@H]2[C@H]1CC/C(COC(=O)CCC(=O)OC/C1=C/CC[C@@]3(C)O[C@H]3[C@H]3OC(=O)C(=C)[C@@H]3CC1)=C\CC[C@@]1(C)O[C@@H]21
2. O=C(/C=C1\N=C(c2ccccc2)N(c2ccc3c(c2)Sc2cc(N4C(=O)/C(=C/C(=O)/C=C/c5ccccc5)N=C4c4ccccc4)ccc2N3)C1=O)/C=C/c1ccccc1
3. Cc1nc2cc(O)c(O)cc2cc1Oc1ccc(NC(=O)Nc2ccc(Cl)c(Cl)c2)cc1
4. CC(C)(C)[C@@H]1NC(=O)CN1C(=O)OCc1ccccc1
5. CCCCCCCCSC1=CC(=O)C(OC)=C(OC)C1=O

Resp:
9.18 µM
57.8 µM
> 32.5 µM
> 100 µM
11.7 µM

Would you mind giving TGI for every compound in the list below?
1. Cc1c(Cl)cccc1NC(=O)C(=O)C1C(=O)NC(=O)NC1=O
2. Cc1cc(Cl)ccc1NC(=O)C1C(=O)N(c2ccc(Cl)cc2C)C(=O)/C1=N\N (configuration not stated)
3. COc1ccc(C2CC(c3cc(OC)c(OC)c(OC)c3)=NN2)cc1 (configuration not stated)
4. CC(C)(C)NCC(O)COc1cccc2[nH]c(C#N)cc12 (configuration not stated)
5. O=C(/C=C/c1ccccc1F)C(c1ccccc1)c1ccccc1
6. CCCCCC(=O)N[C@H](C(=O)N[C@H](C(=O)N(C)[C@@H](CC(C)C)C(=O)N1CCC[C@H]1C(=O)N1CCC[C@H]1C(=O)O[C@H](C(=O)N1C(=O)C=C(OC)[C@@H]1Cc1ccccc1)C(C)C)C(C)C)C(C)C (Hexanoyl-VV[NMeL]PP-X28)

Resp:
["> 100 µM", "> 100 µM", "> 100 µM", "> 100 µM", "13 µM", "> 100 µM"]

Batch request: TGI for each of the following compounds.
1. CC(=O)O[C@H]1CC[C@@]2(C)C(=CC[C@@H]3C2CC[C@]2(C)Nc4oncc4CC32)C1 (some centres not stated)
2. COc1ccccc1NC(=S)N/N=C(/c1ccccc1)c1ccccn1

Resp:
1. > 100 µM
2. 14.9 µM

Every entry's value here was drawn from PubChem BioAssay (NCI).
